experiment: inhibition of PEG-3 promoter activity – cell-based, HeLa, luciferase luminescence, primary screen (AID 588405); conditions: HeLa PEG-Prom luciferase reporter, overnight, at 20 µM, stronger effect = higher value
Out of some 360,000 compounds screened, about 6,200 (1.7%) were called active. Shown is part of a subset that was picked to be rich in actives.
Class fulfilled: inhibition at least 30%. Class not fulfilled: inhibition below 30%.

Enquiry: Kindly determine if inhibition recorded for CCCN(CC(=O)NC(=O)NC1CCCCC1)CC(=O)Nc1cc(Cl)ccc1Cl is above or exactly 30%.
Return: fulfilled

Enquiry: What would you report for Cc1cc(C)c2c(Cn3ccnc3)cc(=O)oc2c1 ?
Return: not fulfilled

Enquiry: Another: Cn1c(CCC(=O)Nc2ccccc2F)nnc1SCC(=O)Nc1ccccc1Cl
Return: not fulfilled

Enquiry: // query: OC[C@H]1O[C@@H](c2nc(-c3nc(-c4ccc(F)cc4)no3)cs2)[C@H](O)[C@@H](O)[C@H]1O
Return: not fulfilled

Enquiry: # iterate: CCc1ccc(C2N3CC4([N+](=O)[O-])CN2CC([N+](=O)[O-])(C3)C4(C)C)cc1 (stereo not given)
Return: not fulfilled

Enquiry: Same question, Cc1cc(NC(=O)COC(=O)/C=C/c2ccc(C)o2)no1 this time
Return: not fulfilled

Enquiry: Let us now turn to COc1cc(SC#N)ccc1N=Cc1c(C)[nH]n(-c2ccc(C)cc2)c1=O
Return: fulfilled

Enquiry: Okay, and COc1ccc2[nH]c(=O)c(CN(Cc3cccnc3)S(=O)(=O)c3ccccc3F)cc2c1 ?
Return: fulfilled

Enquiry: Request: COc1ccc(-c2[nH]ncc2CN(C)Cc2cccnc2)c(F)c1
Return: not fulfilled

Enquiry: # repeat for COc1ccc(NC(=O)/C(N=Nc2cccc(S(=O)(=O)Nc3ccc(SC(F)F)cc3)c2)=C(\C)O)cc1
Return: fulfilled

====

test: inhibition of PEG-3 promoter activity – cell-based, HeLa, luciferase luminescence, primary screen (AID 588405); details: HeLa PEG-Prom luciferase reporter, overnight, at 20 µM, stronger effect = higher value
About 6,200 (1.7%) of roughly 360,000 compounds were called active. What follows is part of a selection rich in actives, with near analogues and random picks from the rest.
value kind: inhibition (%)
The answer is to be given in %; state only the numeric part.

Enquiry: What does the data say about its inhibition? Entry: CSc1ncnc2c1ncn2CC(=O)C1CCC2C3CCC4=CC(=O)CCC4(C)C3CCC12C (stereo unspecified)
Return: 105

Enquiry: What would you report for CCOC(=O)N1CCC(NC(=O)c2ccc3nc(N4CCOCC4)sc3c2)CC1 ?
Return: 16.9

Enquiry: Next: c1ccc2cc3c(NCCN4CCOCC4)ccnc3cc2c1
Return: 69.5

Enquiry: Try this molecule too: CCN1CCC2(CC1)N=C(c1ccc(F)cc1)C(=S)N2C(=O)c1ccc(C)cc1
Return: 90

Enquiry: Another molecule to check: Fc1ccc(-c2ccc(NCCN3CCOCC3)nn2)cc1
Return: -96.4

Enquiry: And then c1c2c(cc3sc(N4CCCCC4)nc13)OCCO2 , what is it?
Return: 80.5

====

assay: inhibition of PEG-3 promoter activity – cell-based, HeLa, luciferase luminescence, primary screen (AID 588405); settings: HeLa PEG-Prom luciferase reporter, overnight, at 20 µM
The whole screen tested about 360,000 compounds, of which about 6,200 (1.7%) were called active.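 Rule for the calls: active = inhibition of at least 50% at 20 µM; inactive = the rest.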 Only a selection was taken, and actives are over-represented in it overall.
Bench note: report the call from Y for active, N for inactive

Enquiry: I would be grateful if you could indicate the recorded call for COc1ccc(C(C)C)cc1-c1ccc2nncn2c1 .
Return: N

Enquiry: Entry COc1cc2[nH]c(=S)n(Cc3ccc(F)cc3)c(=O)c2cc1OC please
Return: N

Enquiry: Query CCOc1cc2[nH]c(=S)n(Cc3ccc(C(=O)N4CCN(C)CC4)cc3)c(=O)c2cc1OCC next
Return: Y

Enquiry: Entry Nc1nc(CSc2nnnn2-c2ccccc2)nc(Nc2ccccc2)n1 please
Return: N

Enquiry: Check COC(=O)Cc1[nH]n(-c2nc3ccccc3s2)c(=O)c1C(C)=Nc1ccc(OC)cc1 too.
Return: Y

Enquiry: CCc1nc2ccccc2c(C(=O)NCc2ccc(OC)cc2)c1C , same question.
Return: N

Enquiry: Try the compound Cc1cc(C)c2nc3nc(C)cc(C)c3c(N)c2c1
Return: Y

Enquiry: Let us now turn to CC12CCC(=O)C=C1CCC1C2C(O)CC2(C)C1CCC2(O)C(O)CO (stereo not given)
Return: N

Enquiry: What do you have for Cc1ccc(S(=O)(=O)N(C)C)cc1NC(=O)c1ccc(-n2cncn2)c([N+](=O)[O-])c1 ?
Return: N

Enquiry: Moving on to the next compound: COc1ccc(S(=O)(=O)NC(=O)C2(C)CCN2C(=O)COc2ccc(Cl)cc2)cc1 (stereo not given)
Return: N

Just for reference, PubChem BioAssay AID588405 is where these values come from.
